experiment: Effect of concentration on the stability of the solution (purity over time); conditions: 0.01 wt %; in water at 25° C.
Entries and their Purity at Day 21 values follow.
Supply the numeric figure in %, leaving out any unit text.

Input: Bench note: what Purity at Day 21 did CCN(CC)CCOC(=O)C(C)c1ccc2oc(-c3ccc(Cl)cc3)nc2c1.Cl (stereo not drawn) show?
Output: 52.9

Input: Bench note: what Purity at Day 21 did `CCN(CC)CCOC(=O)Cc1ccc(C(=O)c2ccc(C)cc2)n1C.Cl` show?
Output: 45.4

Input: Bench note: what Purity at Day 21 did `CCN(CC)CCOC(=O)Cc1c(C)n(C(=O)c2ccc(Cl)cc2)c2ccc(OC)cc12.Cl` show?
Output: 53.4

----------
assay: Effect of concentration on the stability of the solution (purity over time); settings: 3 wt % in 50% ethanol, 25° C.
property_name: Purity(%) at Day 28
Supply the numeric figure in %, leaving out any unit text.

// below: answered molecules
Input: Bench note: what Purity(%) at Day 28 did CC(C)OC(=O)C(N)Cc1ccccc1 (stereo not shown) [Isopropyl 2-amino-3-phenylpropanoate, reference compound] show?
Output: 96.5

Input: Bench note: what Purity(%) at Day 28 did CCOC(=O)c1ccccc1 [Ethyl benzoate, reference compound] show?
Output: 97.5

Input: Bench note: what Purity(%) at Day 28 did CC(C)OC(=O)c1ccccc1 [Isopropyl benzoate, reference compound] show?
Output: 98.4

Next molecule, please.
Input: Bench note: what Purity(%) at Day 28 did CC(C)(C)OC(=O)C(N)Cc1ccccc1 (stereo not shown) [t-Butyl 2-amino-3-phenylpropanoate, reference compound] show?
Output: 50.4

----------
experiment: Effect of concentration on the stability of the solution (purity over time); details: 8 wt %; in water at 25° C.
property_name: Purity at Day 7 (%)
Supply the numeric figure in %, leaving out any unit text.

// below: answered molecules
Input: Bench note: what Purity at Day 7 did `CCN(CC)CCOC(=O)Cc1ccc(C(=O)c2ccc(C)cc2)n1C.Cl` show?
Output: 97.3

Input: Bench note: what Purity at Day 7 did CCN(CC)CCOC(=O)C(C)c1ccc2oc(-c3ccc(Cl)cc3)nc2c1.Cl (stereo not shown) show?
Output: 98.3

Input: Bench note: what Purity at Day 7 did `CCN(CC)CCOC(=O)CCc1ccc2cc(OC)ccc2c1.Cl` show?
Output: 98.3

Next:
Input: Bench note: what Purity at Day 7 did `CCN(CC)CCOC(=O)Cc1sc(-c2ccccc2)nc1-c1ccc(Cl)cc1.Cl` show?
Output: 98.3

Input: Bench note: what Purity at Day 7 did `CCN(CC)CCOC(=O)CCc1nc(-c2ccccc2)c(-c2ccccc2)o1.Cl` show?
Output: 98.3

Input: Bench note: what Purity at Day 7 did CCN(CC)CCOC(=O)CC1=C(C)C(=Cc2ccc([S+](C)[O-])cc2)c2ccc(F)cc21.Cl (stereo not shown) show?
Output: 97.2

Input: Bench note: what Purity at Day 7 did `CCN(CC)CCOC(=O)Cc1c(C)n(C(=O)c2ccc(Cl)cc2)c2ccc(OC)cc12.Cl` show?
Output: 98.3

----------
experiment: Effect of concentration on the stability of the solution (purity over time); details: 0.01 wt % in 50% ethanol, 25° C.
property_name: Purity (%) at hr 0

Input: Bench note: what Purity (%) at hr 0 did CCOC(=O)c1ccccc1 [Ethyl benzoate, reference compound] show?
Output: 97.8%

Input: Bench note: what Purity (%) at hr 0 did CC(C)OC(=O)c1ccccc1 [Isopropyl benzoate, reference compound] show?
Output: 98.4%

Input: Bench note: what Purity (%) at hr 0 did CC(C)(C)OC(=O)c1ccccc1 [t-Butyl benzoate, reference compound] show?
Output: 97.5%

Input: Bench note: what Purity (%) at hr 0 did CC(C)OC(=O)C(N)Cc1ccccc1 (centres unmarked) [Isopropyl 2-amino-3-phenylpropanoate, reference compound] show?
Output: 98.4%

Input: Bench note: what Purity (%) at hr 0 did CC(C)(C)OC(=O)C(N)Cc1ccccc1 (centres unmarked) [t-Butyl 2-amino-3-phenylpropanoate, reference compound] show?
Output: 98.0%
